Catalogue of compounds with associated GI50
tested on: MCF7; experiment: NCI tumour cell line growth inhibition, 48 h
The source made the active and inactive calls. Cut-off read from the data, not from the text of the source: active = GI50 up to about 1.1 µM and inactive = higher.

Solved entries (count: 2):
| compound | targetSystem | GI50 |
| --- | --- | --- |
| C=C(C)[C@@H](O)[C@H](O)C[C@H](C)C1CC[C@]2(C)C1=CC[C@@H]1[C@@]3(C)CC[C@@H](OC(C)=O)C(C)(C)[C@@H]3C[C@@H](OC3OC(COC(C)=O)C(O)C(O)C3O)[C@]12C (stereo partly drawn) | MCF7 | 2.96 µM (inactive) |
| CCCCCn1cc2c3c(cccc31)C1C=C(C)CN(C)[C@@H]1C2.Cc1ccc(C(=O)OC(C(=O)O)C(OC(=O)c2ccc(C)cc2)C(=O)O)cc1 (stereo not drawn) | MCF7 | 4.03 µM (inactive) |

Then this compound:
Ask: Item under review: O=C1NC(Cc2c[nH]c3ccccc23)C(=O)N2C(C3CCCCC3)c3[nH]c4ccccc4c3C[C@@H]12 (stereo partly drawn) . Reported GI50?
Result: 9.08 µM (inactive)

* * *

system: Malme-3M; assay: NCI tumour cell line growth inhibition, 48 h
The source made the active and inactive calls. Cut-off read from the data, not from the text of the source: active = GI50 up to about 1.1 µM and inactive = higher.
Catalogue of molecules with associated GI50

| molecule | GI50 |
| --- | --- |
| Cc1ccc2c(c1)C(=O)c1[nH]c3ccc(F)cc3c1CO2 | 26.3 µM (inactive) |

Ask: Item under review: `O=C(/C=C/c1ccc(-c2ccccc2)cc1)NCc1ccc(C(=O)NCCc2ccccc2)cc1` . Reported GI50?
Result: 31.6 µM (inactive)

Ask: Field entry: `COC(Cc1cc(C(O)(c2ccc(C(C)(C)C)cc2)c2cc(CC(OC)(c3cc(C(OC)(c4ccc(C(C)(C)C)cc4)c4ccc(C(C)(C)C)cc4)c(C)cc3C)c3cc(C(OC)(c4ccc(C(C)(C)C)cc4)c4ccc(C(C)(C)C)cc4)c(C)cc3C)c(C)cc2C)c(C)cc1C)(c1cc(C(OC)(c2ccc(C(C)(C)C)cc2)c2ccc(C(C)(C)C)cc2)c(C)cc1C)c1cc(C(OC)(c2ccc(C(C)(C)C)cc2)c2ccc(C(C)(C)C)cc2)c(C)cc1C`
Result: > 75 µM (inactive)

Ask: Field entry: `CCCCCCCCCCCCCB(O)O`
Result: > 100 µM (inactive)

Ask: Field entry: `COc1cc(/C=C2\C[C@H]3[C@@H]4CC=C5C[C@@H](N6CCCC6)CC[C@]5(C)[C@H]4CC[C@]3(C)[C@H]2OC(C)=O)cc(OC)c1OC`
Result: 21.5 µM (inactive)

Ask: Field entry: `COC(=O)c1cc(C#Cc2cc(OC)ccc2OC)ccc1OC`
Result: 44.3 µM (inactive)

* * *

system: SK-OV-3; assay: NCI tumour cell line growth inhibition, 48 h
Active and inactive are the calls of the source. Cut-off read from the data, not from the text of the source: active = GI50 up to about 1.1 µM and inactive = higher.
Log the outcome using a class from y for active, n for inactive

Worked examples follow.
| compound | targetSystem | group |
| --- | --- | --- |
| O=C(CCc1cccc(O)c1)NCCc1ccc(O)cc1 | SK-OV-3 | n |
| Cc1cc(=O)c2cc(/N=C/c3ccc([N+](=O)[O-])o3)ccc2o1 | SK-OV-3 | n |

Ask: # fetch the recorded call for COc1cccc2c1C(=O)c1c(O)c3c(c(O)c1C2=O)C[C@@](O)(C(=O)CO)CC3OC1CC(N)C(OC2CCCCO2)C(C)O1 (stereo partly specified) here
Result: y

Ask: Field entry: CC(O)CC(=O)CO[C@H]1[C@H](O)[C@@H](O)[C@@H](O)[C@@H]2NC(=O)c3c(cc4c(c3O)OCO4)[C@H]21 (stereo partly specified)
Result: y

Ask: Field entry: `CC(C)(NO)/C(=N\O)c1ccco1`
Result: n

Ask: Field entry: `CNC(=O)NCCN1CC2CCC(CC2)C1`
Result: n

* * *

system: OVCAR-5; experiment: NCI tumour cell line growth inhibition, 48 h
Calls of active or inactive are those of the source. Cut-off read from the data, not from the text of the source: active = GI50 up to about 1.1 µM and inactive = higher.
Log the outcome using a class from active, inactive

Worked examples follow.
| compound | targetSystem | group |
| --- | --- | --- |
| COc1ccc2c(c1)c1c3c(ccc4ncn2c43)N(CCN(C)C)CCN=1 | OVCAR-5 | active |
| O=c1cc(-c2ccccc2)oc2cc(OCCCCCCCCCCOc3ccc4c(=O)cc(-c5ccccc5)oc4c3)ccc12 | OVCAR-5 | inactive |

Ask: # fetch the recorded call for `Cc1cc2c(nn1)CCc1c-2no[n+]1[O-]` here
Result: inactive

Ask: Field entry: `O=C(O)c1cccc(S(=O)(=O)NCCO)c1`
Result: inactive

Ask: Field entry: `Cc1c2cc[n+](COC(=O)c3ccccc3)cc2c(C)c2c1[nH]c1ccccc12`
Result: active

Ask: Field entry: `OC(c1ccc(-c2ccccc2)cc1)(c1ccc(-c2ccccc2)cc1)c1ccc(-c2ccccc2)cc1`
Result: inactive

Ask: Field entry: C=[N+](CNC(=O)CNC(=O)C(Cc1ccc([N+](=O)[O-])cc1)NC(=O)OC(C)(C)C)C(=O)CNC(=O)C(Cc1ccc([N+](=O)[O-])cc1)NC(=O)OC(C)(C)C (stereo not given)
Result: inactive

Ask: Field entry: O=C1CC2Sc3ccccc3N=C2N1c1ccc(Cl)cc1Cl (stereo not given)
Result: inactive

Ask: Field entry: NC(Cc1ccc(O)cn1)C(=O)O (stereo not given)
Result: inactive

Ask: Field entry: `CCOC(=O)c1cn2c(n1)sc1cc(OC)ccc12`
Result: inactive

* * *

tested on: HL-60; assay: NCI tumour cell line growth inhibition, 48 h
Active and inactive are the calls of the source. No stated cut-off is given here; in the data, active = GI50 up to about 1.1 µM and inactive = higher.
Catalogue of compounds with associated GI50

Ask: Item under review: `CC1(C)CCC[C@]2(C)[C@H]3[C@H](C#N)c4cc(O)c(O)cc4O[C@@]3(C)CC[C@@H]12` . Reported GI50?
Result: > 10 µM (inactive)

Ask: Field entry: O=C1N/C(=N\N=C\c2ccccc2)C(c2ccccc2)O1 (stereo not given)
Result: 30.1 µM (inactive)

Ask: Field entry: `O=C(/C=C/c1cc(F)ccc1F)OCCc1ccccc1`
Result: 16.4 µM (inactive)

Ask: Field entry: `Cc1cc(C)c(NC(=S)NC(=O)c2ccccc2)cc1C`
Result: > 100 µM (inactive)

Ask: Field entry: `CCN(CC)CCCNc1nc2ccccc2[n+]([O-])n1`
Result: > 100 µM (inactive)

* * *

system: COLO 205; assay: NCI tumour cell line growth inhibition, 48 h
Active and inactive are the calls of the source. Cut-off read from the data, not from the text of the source: active = GI50 up to about 1.1 µM and inactive = higher.
Catalogue of compounds with associated GI50

Ask: Item under review: NC(=O)N/N=C(\CC1OC(=O)c2ccccc21)c1ccc([N+](=O)[O-])cc1 (stereo unspecified) . Reported GI50?
Result: 46.8 µM (inactive)

* * *

tested on: M19-MEL; experiment: NCI tumour cell line growth inhibition, 48 h
The source made the active and inactive calls. No stated cut-off is given here; in the data, active = GI50 up to about 1.1 µM and inactive = higher.
Log the outcome using a class from active, inactive

Worked examples follow.
| molecule | group |
| --- | --- |
| CCCCCn1cc2c3c(cccc31)C1C=C(C)CN(C)[C@@H]1C2.Cc1ccc(C(=O)OC(C(=O)O)C(OC(=O)c2ccc(C)cc2)C(=O)O)cc1 (stereo not given) | inactive |
| CCOC(OC1=CCCC1)C(C)[Se]c1ccccc1 (stereo not given) | inactive |

Ask: # fetch the recorded call for `C1=CC=C2NCCC/N=C3/C=CC=CC=C3NCCC/N=C\2C=C1` here
Result: inactive

Ask: Field entry: O=C1C2[C@@H](C(=O)N1c1ccc(Br)cc1)C13C(=CC2([N+](=O)[O-])[C@@H]2C(=O)N(c4ccc(Br)cc4)C(=O)[C@@H]21)c1ccccc1N3c1ccccc1 (stereo not given in full)
Result: inactive

Ask: Field entry: `C1CCC(N=C2N(C3CCCCC3)C(=NC3CCCCC3)N2C2CCCCC2)CC1`
Result: inactive

Ask: Field entry: COC(=O)/C(=N/NC(N)=O)C(C(=O)OC)C(=O)C(=O)Nc1ccc(Cl)cc1 (stereo not given)
Result: inactive

Ask: Field entry: O=C(CCCCCCCCCCc1ccccc1)C1=C(O)CC(O)CC1=O (stereo not given)
Result: inactive

* * *

test system: CAKI-1; experiment: NCI tumour cell line growth inhibition, 48 h
Calls of active or inactive are those of the source. Rule as the data show it: active = GI50 up to about 1.1 µM and inactive = higher.
Log the outcome using a class from active, inactive

Worked examples follow.
| molecule | group |
| --- | --- |
| CCOC(=O)c1cc(C2CCN(c3ccccc3)C2=O)c(C(=O)/C=C(/C)O)[nH]1 (stereo not drawn) | inactive |
| CCOc1cc2c(cc1O)CC[C@@H]1[C@@H]2CC[C@]2(C)C(OS(=O)OC3CC[C@@H]4[C@H]5CCc6cc(O)c(OCC)cc6[C@@H]5CC[C@@]34C)CC[C@@H]12 (stereo partly drawn) | inactive |
| C/C(=N\NC(=S)Nc1ccc(Cl)cc1)c1nc2cccnc2[nH]1 | inactive |
| O=c1oc2cccnc2n1CCCCN1CCN(c2ccccc2)CC1 | inactive |
| C/C=C1/CN2CCc3c([nH]c4ccccc34)[C@@H]2C[C@@H]1Cc1nccc2c1[nH]c1cc(O)ccc12 | inactive |
| NC(=O)N/N=C(\CC1OC(=O)c2ccccc21)c1ccc([N+](=O)[O-])cc1 (stereo not drawn) | inactive |

Ask: # fetch the recorded call for `N#CC(C#N)=c1c(=O)c2c3ccccc3cc3cccc1c32` here
Result: inactive

Ask: Field entry: `O=C1/C(=c2\s/c(=C\c3ccccc3)c(=O)n2-c2ccccc2)SC(=S)N1c1ccccc1`
Result: active

Ask: Field entry: `CN(C)C(=O)Nc1cc2c3c(c1)CCCN3CCC2`
Result: inactive

Ask: Field entry: `COc1cc2cnc3c4ccccc4ccc3c2cc1OC`
Result: inactive

Ask: Field entry: CCOC(=O)C1(C(=O)OCC)CC=C(C)CC12C(=O)Nc1ccccc12 (stereo not drawn)
Result: inactive

Ask: Field entry: `COc1ccc(/C=N/N2C(=O)c3c(N)c(C#N)c(-c4ccccc4)c(-c4ccccc4)c3C2=O)cc1`
Result: inactive

Ask: Field entry: CCc1cc(Cc2cc(Cl)c(NC(=O)C(=O)C3NC(=O)NC3=O)c(CC)c2)cc(Cl)c1NC(=O)C(=O)C1NC(=O)NC1=O (stereo not drawn)
Result: inactive

Ask: Field entry: CCS[C@H]1NC(=O)C1[C@H](C)O[Si](C)(C)C(C)(C)C (stereo partly drawn)
Result: inactive

Ask: Field entry: COc1cccc2c1C(=O)c1c(O)c3c(c(O)c1C2=O)C[C@@](O)(C(=O)CO)CC3OC1CC(N)C(OC2CCCCO2)C(C)O1 (stereo partly drawn)
Result: active

Ask: Field entry: `Cc1ccc2nc(/C=N/c3ccccc3Cl)cc(C)c2c1`
Result: inactive

Ask: Field entry: `O=C(/C=C/c1ccc(-c2ccccc2)cc1)NCc1ccc(C(=O)NCCc2ccccc2)cc1`
Result: inactive

Ask: Field entry: C/C=C1/C(=O)O[C@]23C=C[C@@H]4C(C(=O)OC)=CO[C@H](O[C@@H]12)[C@@H]43 [PLUMERICIN]
Result: inactive
